Tested on: 519858-162-T-J1-PDC complex spheroid viability
test_name: Anticancer human tumor 519858-162-T-J1-PDC patient-derived colon adenocarcinoma cell line growth inhibition [GQUAD]
cond: second compound 3.16 µM; first compound 0.1 µM; hits give low values
measurement_label: viability, T/C (%)
Output spec: scalar in %, unitless text.

Some solved cases for reference:
# molecule, unit_symbol, viability, T/C
rows = [
    ("COc1cc(C2c3cc4c(cc3C(OC3OC5COC(C)OC5C(O)C3O)C3COC(=O)C23)OCO4)cc(OC)c1O (stereo not drawn) + CN(C)c1ccc(Nc2c3ccc(NC(=O)CCN4CCCC4)cc3nc3cc(NC(=O)CCN4CCCC4)ccc23)cc1", "%", 76.2),
    ("CC1COCCN1c1cc(C2(O)CC3CCC(C2)O3)c2cnn(-c3ccn[nH]3)c2n1 (stereo not drawn) + Cc1cnc(CNC(=O)c2c(=O)c3ccc(N4CCCN(C)CC4)nc3n3c2sc2ccccc23)cn1", "%", 38.9),
]

We next turn to a different molecule, shown below.
# molecule C=CC(=O)N1CCN(c2nc(=O)n(-c3c(C)ccnc3C(C)C)c3nc(-c4c(O)cccc4F)c(F)cc23)C(C)C1 (stereo not drawn) + Cc1[nH]c2ccc(F)cc2c1-c1nc2c3cccnc3c3ncccc3c2[nH]1 ; its viability, T/C = 73.6

* * *

System: 519858-162-T-J1-PDC complex spheroid viability
test_name: Anticancer human tumor 519858-162-T-J1-PDC cell line growth inhibition [GQUAD];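 note: spheroids exposed to compounds for 7 days; 100% = DMSO vehicle control viability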
cond: second compound 3.16 µM; first compound 1 µM; hits give low values
measurement_label: viability, T/C (%)
Output spec: scalar in %, unitless text.

Some solved cases for reference:
# compound, target_entity, measurement_label, data_value
rows = [
    ("C=CC(=O)N1CCN(c2nc(=O)n(-c3c(C)ccnc3C(C)C)c3nc(-c4c(O)cccc4F)c(F)cc23)C(C)C1 (stereo unspecified) + CN(C)c1ccc(Nc2c3ccc(NC(=O)CCN4CCCC4)cc3nc3cc(NC(=O)CCN4CCCC4)ccc23)cc1", "519858-162-T-J1-PDC complex spheroid viability", "viability, T/C", 62.2),
    ("COc1ccc([C@@H](O)c2cc(-c3ncnc4cc(N5CCOCC5)ccc34)c(F)cc2Cl)nn1 + CN(C)c1ccc(Nc2c3ccc(NC(=O)CCN4CCCC4)cc3nc3cc(NC(=O)CCN4CCCC4)ccc23)cc1", "519858-162-T-J1-PDC complex spheroid viability", "viability, T/C", 66.3),
    ("O=c1[nH]cc(F)c(=O)[nH]1 + Cc1[nH]c2ccc(F)cc2c1-c1nc2c3cccnc3c3ncccc3c2[nH]1", "519858-162-T-J1-PDC complex spheroid viability", "viability, T/C", 75.5),
    ("O=C(NO)c1cnc(N2CCN(S(=O)(=O)c3ccc4ccccc4c3)CC2)nc1 + Cc1cnc(CNC(=O)c2c(=O)c3ccc(N4CCCN(C)CC4)nc3n3c2sc2ccccc23)cn1", "519858-162-T-J1-PDC complex spheroid viability", "viability, T/C", 5.54),
    ("C=CC(=O)N1CCN(c2nc(=O)n(-c3c(C)ccnc3C(C)C)c3nc(-c4c(O)cccc4F)c(F)cc23)C(C)C1 (stereo unspecified) + Cc1[nH]c2ccc(F)cc2c1-c1nc2c3cccnc3c3ncccc3c2[nH]1", "519858-162-T-J1-PDC complex spheroid viability", "viability, T/C", 46.4),
]

# compound CC1COCCN1c1cc(C2(S(C)(=N)=O)CC2)nc(-c2ccnc3[nH]ccc23)n1 (stereo unspecified) + Cc1[nH]c2ccc(F)cc2c1-c1nc2c3cccnc3c3ncccc3c2[nH]1 ; its viability, T/C = 55.6

# compound C=CCn1c(=O)c2cnc(Nc3ccc(N4CCN(C)CC4)cc3)nc2n1-c1cccc(C(C)(C)O)n1 + Cc1cnc(CNC(=O)c2c(=O)c3ccc(N4CCCN(C)CC4)nc3n3c2sc2ccccc23)cn1 ; its viability, T/C = 45.5

# compound CC(C)(O)C1CCC(Nc2ccc3ncc(-c4cccc(C(F)(F)F)c4)n3n2)CC1 (stereo unspecified) + Cc1[nH]c2ccc(F)cc2c1-c1nc2c3cccnc3c3ncccc3c2[nH]1 ; its viability, T/C = 122

# compound CC(C)(O)C1CCC(Nc2ccc3ncc(-c4cccc(C(F)(F)F)c4)n3n2)CC1 (stereo unspecified) + Cc1cnc(CNC(=O)c2c(=O)c3ccc(N4CCCN(C)CC4)nc3n3c2sc2ccccc23)cn1 ; its viability, T/C = 47.1

# compound COc1cccc2c1C(=O)c1c(O)c3c(c(O)c1C2=O)CC(O)(C(=O)CO)CC3OC1CC(N)C(O)C(C)O1 (stereo unspecified) + CN(C)c1ccc(Nc2c3ccc(NC(=O)CCN4CCCC4)cc3nc3cc(NC(=O)CCN4CCCC4)ccc23)cc1 ; its viability, T/C = 66.8

src = PubChem BioAssay AID2060507
